Target: Signal transducer and activator of transcription 1 (Mus musculus) (UniProt P42225)
Sequence (whole entry): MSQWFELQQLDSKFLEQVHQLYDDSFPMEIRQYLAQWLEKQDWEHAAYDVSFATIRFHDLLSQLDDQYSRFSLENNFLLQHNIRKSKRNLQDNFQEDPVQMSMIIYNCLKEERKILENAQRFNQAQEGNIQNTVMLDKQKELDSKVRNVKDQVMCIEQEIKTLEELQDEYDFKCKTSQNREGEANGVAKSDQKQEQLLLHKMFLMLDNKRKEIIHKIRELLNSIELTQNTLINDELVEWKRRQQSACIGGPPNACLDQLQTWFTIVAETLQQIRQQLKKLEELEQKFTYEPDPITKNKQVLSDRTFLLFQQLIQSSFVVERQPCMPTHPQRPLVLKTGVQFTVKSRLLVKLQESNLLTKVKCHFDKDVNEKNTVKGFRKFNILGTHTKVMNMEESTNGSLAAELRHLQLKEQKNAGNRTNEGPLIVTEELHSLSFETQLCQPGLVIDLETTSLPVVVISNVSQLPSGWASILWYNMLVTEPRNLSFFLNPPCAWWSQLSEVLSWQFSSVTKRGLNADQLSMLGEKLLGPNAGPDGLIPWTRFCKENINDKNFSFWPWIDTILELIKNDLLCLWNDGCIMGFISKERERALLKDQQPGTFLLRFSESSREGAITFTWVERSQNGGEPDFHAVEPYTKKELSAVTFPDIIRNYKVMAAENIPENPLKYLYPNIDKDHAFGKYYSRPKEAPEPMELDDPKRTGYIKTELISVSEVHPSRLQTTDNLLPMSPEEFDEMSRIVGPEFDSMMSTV
Test: Inhibition of oligonucleotide [32P]-labelled 5'-AGCITCATTTCCCGTAAATCCCTA probe binding to STAT1 homodimer in mouse NIH3T3 nuclear extract at 10 uM preincubated for 30 mins followed by hSIE probe addition by EMSA analysis
Active and inactive are the calls of the source. No cut-off for these calls is given here.
RESULT TYPE: inhibition

INSERT INTO assay_data (structure_string, target, result) VALUES
  ('O=C(O)c1ccc(N(Cc2ccc(C3CCOCC3)cc2)C(=O)[C@H]2CCN2S(=O)(=O)c2c(F)c(F)c(F)c(F)c2F)cc1O', 'Signal transducer and activator of transcription 1 (Mus musculus) (UniProt P42225)', 'Active'),
  ('O=C(O)c1ccc(N(Cc2ccc(C3CCCC3)cc2)C(=O)[C@H]2CCN2S(=O)(=O)c2c(F)c(F)c(F)c(F)c2F)cc1O', 'Signal transducer and activator of transcription 1 (Mus musculus) (UniProt P42225)', 'Active'),
  ('COC(=O)c1ccc(N(Cc2ccc(C3CCCCC3)cc2)C(=O)[C@H]2CCN2S(=O)(=O)c2c(F)c(F)c(F)c(F)c2F)c(F)c1', 'Signal transducer and activator of transcription 1 (Mus musculus) (UniProt P42225)', 'Active'),
  ('O=C(NO)c1ccc(N(Cc2ccc(C3CCCCC3)cc2)C(=O)[C@H]2CCN2S(=O)(=O)c2c(F)c(F)c(F)c(F)c2F)c(F)c1', 'Signal transducer and activator of transcription 1 (Mus musculus) (UniProt P42225)', 'Active'),
  ('O=C(O)c1cc(F)c(N(Cc2ccc(C3CCCCC3)cc2)C(=O)[C@H]2CCN2S(=O)(=O)c2c(F)c(F)c(F)c(F)c2F)cc1O', 'Signal transducer and activator of transcription 1 (Mus musculus) (UniProt P42225)', 'Active');

## Task For the compound O=C(O)c1ccc(N(Cc2ccc(C3CCOCC3)nc2)C(=O)[C@H]2CCN2S(=O)(=O)c2c(F)c(F)c(F)c(F)c2F)cc1O , what inhibition is on record?
## Result Active

## Task Follow-up entry: O=C(O)c1ccc(N(Cc2ccc(C3CCCCC3)nc2)C(=O)[C@H]2CCN2S(=O)(=O)c2c(F)c(F)c(F)c(F)c2F)cc1O
## Result Active
